I'd be grateful if you could share measured viability at 24 h, 100 ug/mL for these entries.
experiment: Cytotoxicity against mouse J774 cells assessed as cell viability at 100 ug/mL after 24 hrs by MTT assay; type: cell-based; settings: read-out: Activity
Give the value, in units of %, as a plain number.

// returns reported viability at 24 h, 100 ug/mL for input `COc1ccc(S(=O)(=O)N[C@@H](Cc2ccccc2)[C@H](O)CN2CCN(Cc3ccc4c(c3)OCO4)CC2)cc1`
12

// returns reported viability at 24 h, 100 ug/mL for input `O=C(N[C@@H](Cc1ccccc1)[C@H](O)CN1CCN(Cc2ccc3c(c2)OCO3)CC1)c1c(F)cccc1F`
51

// returns reported viability at 24 h, 100 ug/mL for input `O=C(N[C@@H](Cc1ccccc1)[C@H](O)CN1CCN(Cc2ccc3c(c2)OCO3)CC1)c1c(Cl)cccc1Cl`
43

###

test system: Plasmodium falciparum; assay: Antimalarial activity against Plasmodium falciparum W2 by [3H]hypoxanthine uptake; assay type: functional, organism-based
measured-quantity: log10 of IC50 (log10 of the value in µM)
Please keep in mind that the values are log10 of IC50 expressed in µM.

// returns reported log10 of IC50 for input `O=C(N[C@@H](Cc1ccccc1)[C@H](O)CN1CCN(Cc2ccc3c(c2)OCO3)CC1)c1c(Cl)cccc1Cl`
1.74

// returns reported log10 of IC50 for input `Cc1c(O)cccc1C(=O)N[C@@H](Cc1ccccc1)[C@H](O)CN1CCN(Cc2ccc3c(c2)OCO3)CC1`
0.77

// returns reported log10 of IC50 for input `Cc1ccc(S(=O)(=O)N[C@@H](Cc2ccccc2)[C@H](O)CN2CCN(Cc3ccc(F)cc3)CC2)cc1`
1.63

// returns reported log10 of IC50 for input `Nc1ccc(S(=O)(=O)N[C@@H](Cc2ccccc2)[C@H](O)CN2CCN(Cc3ccc4c(c3)OCO4)CC2)cc1`
0.68

// returns reported log10 of IC50 for input `O=C(N[C@@H](Cc1ccccc1)[C@H](O)CN1CCN(Cc2ccc3c(c2)OCO3)CC1)c1ccc2c(c1)OCO2`
1.40

// returns reported log10 of IC50 for input `Cc1ccc(S(=O)(=O)N[C@@H](Cc2ccccc2)[C@H](O)CN2CCN(Cc3ccc4c(c3)OCO4)CC2)cc1`
1.23

// returns reported log10 of IC50 for input `O=C(N[C@@H](Cc1ccccc1)[C@H](O)CN1CCN(Cc2ccc3c(c2)OCO3)CC1)c1c(F)cccc1F`
1.68

// returns reported log10 of IC50 for input `O=C(N[C@@H](Cc1ccccc1)[C@H](O)CN1CCN(Cc2ccc3c(c2)OCO3)CC1)c1cc(Cl)cc(Cl)c1`
1.67

// returns reported log10 of IC50 for input `Cc1ccc(S(=O)(=O)N[C@@H](Cc2ccccc2)[C@H](O)CN2CCN(Cc3ccc(Cl)cc3)CC2)cc1`
1.55

// returns reported log10 of IC50 for input `O=S(=O)(N[C@@H](Cc1ccccc1)[C@H](O)CN1CCN(Cc2ccc3c(c2)OCO3)CC1)c1ccc(Br)cc1`
0.75

// returns reported log10 of IC50 for input `COc1ccc(S(=O)(=O)N[C@@H](Cc2ccccc2)[C@H](O)CN2CCN(Cc3ccc4c(c3)OCO4)CC2)cc1`
1.54

// returns reported log10 of IC50 for input `O=[N+]([O-])c1ccc(S(=O)(=O)N[C@@H](Cc2ccccc2)[C@H](O)CN2CCN(Cc3ccc4c(c3)OCO4)CC2)cc1`
1.64

// returns reported log10 of IC50 for input `O=C(N[C@@H](Cc1ccccc1)[C@H](O)CN1CCN(Cc2ccc3c(c2)OCO3)CC1)c1ccccc1`
1.84

// returns reported log10 of IC50 for input `O=S(=O)(N[C@@H](Cc1ccccc1)[C@H](O)CN1CCN(Cc2ccc3c(c2)OCO3)CC1)c1ccc(F)cc1`
1.63

###

experiment: Cytotoxicity against mouse J774 cells assessed as cell viability at 100 ug/mL after 24 hrs by MTT assay; assay type: cell-based; conditions: read-out: Activity
API: label(entry) gives 1.0 if the entry's viability at 24 h, 100 ug/mL is strictly smaller than 20%; on equality or larger values it gives 0.0.

For this compound, is viability at 24 h, 100 ug/mL lower than 20%? `COc1ccc(CN2CCN(C[C@@H](O)[C@H](Cc3ccccc3)NS(=O)(=O)c3ccc(C)cc3)CC2)cc1OC`
1.0

For this compound, is viability at 24 h, 100 ug/mL lower than 20%? `Cc1ccc(S(=O)(=O)N[C@@H](Cc2ccccc2)[C@H](O)CN2CCN(Cc3ccc([N+](=O)[O-])cc3)CC2)cc1`
0.0

For this compound, is viability at 24 h, 100 ug/mL lower than 20%? `O=C(N[C@@H](Cc1ccccc1)[C@H](O)CN1CCN(Cc2ccc3c(c2)OCO3)CC1)c1ccc2c(c1)OCO2`
0.0

For this compound, is viability at 24 h, 100 ug/mL lower than 20%? `Cc1ccc(S(=O)(=O)N[C@@H](Cc2ccccc2)[C@H](O)CN2CCN(Cc3ccc(Cl)cc3)CC2)cc1`
0.0

For this compound, is viability at 24 h, 100 ug/mL lower than 20%? `Cc1ccc(S(=O)(=O)N[C@@H](Cc2ccccc2)[C@H](O)CN2CCN(Cc3ccc(N)cc3)CC2)cc1`
1.0

For this compound, is viability at 24 h, 100 ug/mL lower than 20%? `Cc1ccc(S(=O)(=O)N[C@@H](Cc2ccccc2)[C@H](O)CN2CCN(Cc3ccc(F)cc3)CC2)cc1`
1.0

For this compound, is viability at 24 h, 100 ug/mL lower than 20%? `O=C(N[C@@H](Cc1ccccc1)[C@H](O)CN1CCN(Cc2ccc3c(c2)OCO3)CC1)c1cc(Cl)cc(Cl)c1`
0.0

For this compound, is viability at 24 h, 100 ug/mL lower than 20%? `Cc1ccc(S(=O)(=O)N[C@@H](Cc2ccccc2)[C@H](O)CN2CCN(Cc3ccc4c(c3)OCO4)CC2)cc1`
0.0

###

assay: Cytotoxicity against mouse J774 cells assessed as cell viability at 0.1 ug/mL after 24 hrs by MTT assay; type: cell-based; conditions: read-out: Activity
measured-quantity: viability at 24 h, 0.1 ug/mL

// returns reported viability at 24 h, 0.1 ug/mL for input `O=S(=O)(N[C@@H](Cc1ccccc1)[C@H](O)CN1CCN(Cc2ccc3c(c2)OCO3)CC1)c1ccc(F)cc1`
100%

// returns reported viability at 24 h, 0.1 ug/mL for input `Cc1ccc(S(=O)(=O)N[C@@H](Cc2ccccc2)[C@H](O)CN2CCN(Cc3ccc(Cl)cc3)CC2)cc1`
100%

// returns reported viability at 24 h, 0.1 ug/mL for input `Cc1ccc(S(=O)(=O)N[C@@H](Cc2ccccc2)[C@H](O)CN2CCN(Cc3ccc4c(c3)OCO4)CC2)cc1`
100%

###

assay: Cytotoxicity against mouse J774 cells assessed as cell viability at 1 ug/mL after 24 hrs by MTT assay; assay type: cell-based; conditions: read-out: Activity
measured-quantity: viability at 24 h, 1 ug/mL (%)
Give the value, in units of %, as a plain number.

// returns reported viability at 24 h, 1 ug/mL for input `O=C(N[C@@H](Cc1ccccc1)[C@H](O)CN1CCN(Cc2ccc3c(c2)OCO3)CC1)c1c(Cl)cccc1Cl`
90

// returns reported viability at 24 h, 1 ug/mL for input `O=[N+]([O-])c1ccc(S(=O)(=O)N[C@@H](Cc2ccccc2)[C@H](O)CN2CCN(Cc3ccc4c(c3)OCO4)CC2)cc1`
100

// returns reported viability at 24 h, 1 ug/mL for input `Cc1ccc(S(=O)(=O)N[C@@H](Cc2ccccc2)[C@H](O)CN2CCN(Cc3ccc4c(c3)OCO4)CC2)cc1`
100

// returns reported viability at 24 h, 1 ug/mL for input `O=C(N[C@@H](Cc1ccccc1)[C@H](O)CN1CCN(Cc2ccc3c(c2)OCO3)CC1)c1c(F)cccc1F`
87

###

test: Cytotoxicity against mouse J774 cells assessed as cell viability at 1 ug/mL after 24 hrs by MTT assay; assay type: cell-based; conditions: read-out: Activity
measured-quantity: viability at 24 h, 1 ug/mL
# answer = value followed by unit

// returns reported viability at 24 h, 1 ug/mL for input `Nc1ccc(S(=O)(=O)N[C@@H](Cc2ccccc2)[C@H](O)CN2CCN(Cc3ccc4c(c3)OCO4)CC2)cc1`
100%

// returns reported viability at 24 h, 1 ug/mL for input `O=C(N[C@@H](Cc1ccccc1)[C@H](O)CN1CCN(Cc2ccc3c(c2)OCO3)CC1)c1ccc2c(c1)OCO2`
100%

// returns reported viability at 24 h, 1 ug/mL for input `Cc1ccc(S(=O)(=O)N[C@@H](Cc2ccccc2)[C@H](O)CN2CCN(Cc3ccc(N)cc3)CC2)cc1`
90%

// returns reported viability at 24 h, 1 ug/mL for input `Cc1ccc(S(=O)(=O)N[C@@H](Cc2ccccc2)[C@H](O)CN2CCN(Cc3ccc(F)cc3)CC2)cc1`
100%

// returns reported viability at 24 h, 1 ug/mL for input `Cc1ccc(S(=O)(=O)N[C@@H](Cc2ccccc2)[C@H](O)CN2CCN(Cc3ccc(Cl)cc3)CC2)cc1`
98%

// returns reported viability at 24 h, 1 ug/mL for input `COc1ccc(S(=O)(=O)N[C@@H](Cc2ccccc2)[C@H](O)CN2CCN(Cc3ccc4c(c3)OCO4)CC2)cc1`
99%

// returns reported viability at 24 h, 1 ug/mL for input `O=S(=O)(N[C@@H](Cc1ccccc1)[C@H](O)CN1CCN(Cc2ccc3c(c2)OCO3)CC1)c1ccc(Br)cc1`
100%

The measured values listed here are drawn from ChEMBL document CHEMBL1153608.
